# test.description: Preliminary pharmacokinetics in SD rats
# Assay type: in vivo
# study.conditions: male, SD, rat, plasma, iv, 2 mg/kg, i.v. 2 mg/kg, 12 h; read-out: Concentration of BH in rat plasma, individual rats No1-No3

[
  {
    "compound": "CC1=CC(=O)[C@@H](O)[C@]2(C)[C@H]3[C@@H](O)[C@H](O)[C@@]4(CO)OC[C@@]35[C@@H](C[C@@H]12)OC(=O)[C@H](O)[C@]54O [BH, Bruceine H]",
    "concentration at 12 h / ng/mL": 20
  }
]

----------
# test.description: Preliminary pharmacokinetics in SD rats
# Type: in vivo
# study.conditions: male, SD, rat, plasma, iv, 2 mg/kg, i.v. 2 mg/kg, 0.25 h; read-out: Concentration of BH in rat plasma, Mean
# Experimental: We administered BH by gavage and intravenous administration to SD rats (male, 200–220 g, n = 6) after they had fasted for 12 h. For oral gavage, the BH was dissolved in DMSO/0.5% CMC-Na (5/95, v/v/), and for intravenous administration, it was dissolved in DMSO/0.9% NaCl (5/95, v/v/), and then the blood samples were collected at intervals to determine the pharmacokinetic (PK) profiles of SD rats.
test.readout: concentration at 0.25 h (ng/mL)

[
  {
    "smiles.notation": "CC1=CC(=O)[C@@H](O)[C@]2(C)[C@H]3[C@@H](O)[C@H](O)[C@@]4(CO)OC[C@@]35[C@@H](C[C@@H]12)OC(=O)[C@H](O)[C@]54O",
    "test.readout": "concentration at 0.25 h",
    "reported": 384
  }
]

----------
# test.description: Preliminary pharmacokinetics in SD rats
# Assay type: in vivo
# study.conditions: male, SD, rat, plasma, iv, 2 mg/kg, SD rats, 2 mg/kg iv; read-out: Clearance (CL) (converted)
test.readout: clearance (mL/min/kg)

[
  {
    "smiles.notation": "CC1=CC(=O)[C@@H](O)[C@]2(C)[C@H]3[C@@H](O)[C@H](O)[C@@]4(CO)OC[C@@]35[C@@H](C[C@@H]12)OC(=O)[C@H](O)[C@]54O",
    "reading.unit": "mL/min/kg",
    "reported": 31.9
  }
]

----------
# test.description: Preliminary pharmacokinetics in SD rats
# Assay type: in vivo
# study.conditions: male, SD, rat, plasma, po, 10 mg/kg, rat, p.o.; read-out: MRT (0-∞), Mean
# Protocol: We administered BH by gavage and intravenous administration to SD rats (male, 200–220 g, n = 6) after they had fasted for 12 h. For oral gavage, the BH was dissolved in DMSO/0.5% CMC-Na (5/95, v/v/), and for intravenous administration, it was dissolved in DMSO/0.9% NaCl (5/95, v/v/), and then the blood samples were collected at intervals to determine the pharmacokinetic (PK) profiles of SD rats.

[
  {
    "smiles.notation": "CC1=CC(=O)[C@@H](O)[C@]2(C)[C@H]3[C@@H](O)[C@H](O)[C@@]4(CO)OC[C@@]35[C@@H](C[C@@H]12)OC(=O)[C@H](O)[C@]54O",
    "MRT inf, h": 5.92
  }
]

----------
# test.description: Preliminary pharmacokinetics in SD rats
# Format: in vivo
# study.conditions: male, SD, rat, plasma, po, 10 mg/kg, rat, p.o.; read-out: C_last, Mean
test.readout: concentration at 24 h (ng/mL)

[
  {
    "molecule": "CC1=CC(=O)[C@@H](O)[C@]2(C)[C@H]3[C@@H](O)[C@H](O)[C@@]4(CO)OC[C@@]35[C@@H](C[C@@H]12)OC(=O)[C@H](O)[C@]54O [BH, Bruceine H]",
    "reading.unit": "ng/mL",
    "reported": 2
  }
]
